system: LG0567-F671-PDC complex spheroids viability; test: Anticancer human tumor LG0567-F671-PDC patient-derived lung adenocarcinoma cell line growth inhibition [RAS]; details: second compound 0.316 µM; first compound 10 µM; active means viability on the fitted dose curve at most 10% of control; inactive means the rest
Reply using exactly one outcome from active, inactive

Lab log entry: CC(C)NCC(C(=O)N1CCN(c2ncnc3c2C(C)CC3O)CC1)c1ccc(Cl)cc1 (stereo not drawn) + C=CC(=O)N1CCN(c2nc(OCC3CCCN3C)nc3c(F)c(-c4nc(N)cc(C)c4C(F)(F)F)c(Cl)cc23)C(C)C1 — outcome as called in the assay? active

Continue with NC1c2ccccc2OC12CCN(c1cnc3c(N4CCCc5ncccc54)n[nH]c3n1)CC2 (stereo not drawn) + C=CC(=O)N1CCN(c2nc(OCC3CCCN3C)nc3c(F)c(-c4nc(N)cc(C)c4C(F)(F)F)c(Cl)cc23)C(C)C1 active

CC(C)NCC(C(=O)N1CCN(c2ncnc3c2C(C)CC3O)CC1)c1ccc(Cl)cc1 (stereo not drawn) + C#Cc1c(F)ccc2cc(O)cc(-c3ncc4c(N5CC6CCC(C5)N6)nc(OCC56CCCN5CC(F)C6)nc4c3F)c12 , same question. inactive

====

test system: LG0567-F671-PDC complex spheroids viability; test: Anticancer human tumor LG0567-F671-PDC cell line growth inhibition [RAS]; settings: second compound 0.0316 µM; first compound 0.03 µM; active compounds read low;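 further: spheroids exposed to compound for seven days before readout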
Consider the following compounds; for each one, report its viability, T/C.

What viability, T/C value was documented for this compound, CC1(C)CCC(Nc2ncc(C(F)(F)F)c(-c3c[nH]c4c(P(C)(C)=O)c(C#N)ccc34)n2)CN1 (centres undefined) + C=CC(=O)N1CCN(c2nc(OCC3CCCN3C)nc3c(F)c(-c4nc(N)cc(C)c4C(F)(F)F)c(Cl)cc23)C(C)C1 ? 11.2%

Ok, now CC1(C)CCC(Nc2ncc(C(F)(F)F)c(-c3c[nH]c4c(P(C)(C)=O)c(C#N)ccc34)n2)CN1 (centres undefined) + C#Cc1c(F)ccc2cc(O)cc(-c3ncc4c(N5CC6CCC(C5)N6)nc(OCC56CCCN5CC(F)C6)nc4c3F)c12 45.5%

Try this compound next: CCc1c2c(nc3ccc(O)cc13)-c1cc3c(c(=O)n1C2)COC(=O)[C@]3(O)CC + C#Cc1c(F)ccc2cc(O)cc(-c3ncc4c(N5CC6CCC(C5)N6)nc(OCC56CCCN5CC(F)C6)nc4c3F)c12 44.4%

Here is the next compound: CCc1c2c(nc3ccc(O)cc13)-c1cc3c(c(=O)n1C2)COC(=O)[C@]3(O)CC + C=CC(=O)N1CCN(c2nc(OCC3CCCN3C)nc3c(F)c(-c4nc(N)cc(C)c4C(F)(F)F)c(Cl)cc23)C(C)C1 8.57%

====

test system: LG0567-F671-PDC complex spheroids viability; experiment: Anticancer human tumor LG0567-F671-PDC cell line growth inhibition [RAS]; conditions: second compound 0.003 µM; first compound 0.0949 µM; active compounds read low;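 further: spheroids exposed to compound for seven days before readout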
recorded-endpoint: viability, T/C (%)
Give just the numeric value; % need not be written.

What value of viability, T/C has been reported for the following molecule? CC1(C)CCC(Nc2ncc(C(F)(F)F)c(-c3c[nH]c4c(P(C)(C)=O)c(C#N)ccc34)n2)CN1 (centres undefined) + CCn1c(-c2cc(N3CCN(C)CC3)cnc2C(C)OC)c2c3cc(ccc31)-c1csc(n1)CC(NC(=O)C1CC1C)C(=O)N1CCCC(N1)C(=O)OCC(C)(C)C2 10.7

And then CCc1c2c(nc3ccc(O)cc13)-c1cc3c(c(=O)n1C2)COC(=O)[C@]3(O)CC + CCn1c(-c2cccnc2C(C)OC)c2c3cc(ccc31)N1CCOC(CC(NC(=O)C(C(C)C)N(C)C(=O)C3(F)CCN(C(=O)C#CC(C)(C)N(C)C)CC3)C(=O)N3CCCC(N3)C(=O)OCC(C)(C)C2)C1 , what is it? 6.04

Next up: CC1(C)CCC(Nc2ncc(C(F)(F)F)c(-c3c[nH]c4c(P(C)(C)=O)c(C#N)ccc34)n2)CN1 (centres undefined) + CCn1c(-c2cccnc2C(C)OC)c2c3cc(ccc31)N1CCOC(CC(NC(=O)C(C(C)C)N(C)C(=O)C3(F)CCN(C(=O)C#CC(C)(C)N(C)C)CC3)C(=O)N3CCCC(N3)C(=O)OCC(C)(C)C2)C1 15.4

Note, next up: CCc1c2c(nc3ccc(O)cc13)-c1cc3c(c(=O)n1C2)COC(=O)[C@]3(O)CC + CCn1c(-c2cc(N3CCN(C)CC3)cnc2C(C)OC)c2c3cc(ccc31)-c1csc(n1)CC(NC(=O)C1CC1C)C(=O)N1CCCC(N1)C(=O)OCC(C)(C)C2 4.22

====

test system: LG0567-F671-PDC complex spheroids viability; assay: Anticancer human tumor LG0567-F671-PDC cell line growth inhibition [RAS]; details: second compound 0.316 µM; first compound 0.00316 µM; active compounds read low;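 further: spheroids exposed to compound for seven days before readout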
Task for the reader: assign each of the following compounds its reported viability, T/C.
Lab book: enter the figure in %, no units written.

Notebook: pull reported viability, T/C for LG0567-F671-PDC complex spheroids viability, entry C=CC(=O)Nc1cc(Nc2nccc(-c3cn(C)c4ccccc34)n2)c(OC)cc1N(C)CCN(C)C + C#Cc1c(F)ccc2cc(O)cc(-c3ncc4c(N5CC6CCC(C5)N6)nc(OCC56CCCN5CC(F)C6)nc4c3F)c12 53.4

Further, for C=CC(=O)N1CCN(c2nc(OCC3CCCN3C)nc3c(F)c(-c4nc(N)cc(C)c4C(F)(F)F)c(Cl)cc23)C(C)C1 (stereo unspecified) + C#Cc1c(F)ccc2cc(O)cc(-c3ncc4c(N5CC6CCC(C5)N6)nc(OCC56CCCN5CC(F)C6)nc4c3F)c12 ? 16.3

// next record Nc1ccn(C2OC(CO)C(O)C2(F)F)c(=O)n1 (stereo unspecified) + C#Cc1c(F)ccc2cc(O)cc(-c3ncc4c(N5CC6CCC(C5)N6)nc(OCC56CCCN5CC(F)C6)nc4c3F)c12 46.8

What would you report for CC(C)n1nc(-c2ccc3oc(N)nc3c2)c2c(N)ncnc21 + C#Cc1c(F)ccc2cc(O)cc(-c3ncc4c(N5CC6CCC(C5)N6)nc(OCC56CCCN5CC(F)C6)nc4c3F)c12 ? 49.1

Now give it for CCN1CCN(Cc2ccc(Nc3ncc(F)c(-c4cc(F)c5nc(C)n(C(C)C)c5c4)n3)nc2)CC1 + C#Cc1c(F)ccc2cc(O)cc(-c3ncc4c(N5CC6CCC(C5)N6)nc(OCC56CCCN5CC(F)C6)nc4c3F)c12 too. 54.4

Queued: CCN1CCN(Cc2ccc(Nc3ncc(F)c(-c4cc(F)c5nc(C)n(C(C)C)c5c4)n3)nc2)CC1 + C=CC(=O)N1CCN(c2nc(OCC3CCCN3C)nc3c(F)c(-c4nc(N)cc(C)c4C(F)(F)F)c(Cl)cc23)C(C)C1 12.7

====

Please provide measured viability, T/C for the entries that follow.
system: LG0567-F671-PDC complex spheroids viability; experiment: Anticancer human tumor LG0567-F671-PDC cell line growth inhibition [RAS]; details: second compound 0.00949 µM; first compound 3.16 µM; active compounds read low;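 further: spheroids exposed to compound for seven days before readout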

Item: Cc1nc(N2CCC3(CC2)COC(C)C3N)c(CO)nc1Sc1ccnc(N)c1Cl (stereo not drawn) + CCn1c(-c2cc(N3CCN(C)CC3)cnc2C(C)OC)c2c3cc(ccc31)-c1csc(n1)CC(NC(=O)C1CC1C)C(=O)N1CCCC(N1)C(=O)OCC(C)(C)C2 Test system: LG0567-F671-PDC complex spheroids viability Read-out: viability, T/C Value: ? 1.14%

And what about the compound CC(Nc1ccc2c(c1)OCCn1cc(N3C(=O)OCC3C(F)F)nc1-2)C(N)=O (stereo not drawn) + CCn1c(-c2cccnc2C(C)OC)c2c3cc(ccc31)N1CCOC(CC(NC(=O)C(C(C)C)N(C)C(=O)C3(F)CCN(C(=O)C#CC(C)(C)N(C)C)CC3)C(=O)N3CCCC(N3)C(=O)OCC(C)(C)C2)C1 ? 5.36%

And what about the compound CCC(CC)c1cc(NC2CCC(N)C2)n2nccc2n1 (stereo not drawn) + CCn1c(-c2cc(N3CCN(C)CC3)cnc2C(C)OC)c2c3cc(ccc31)-c1csc(n1)CC(NC(=O)C1CC1C)C(=O)N1CCCC(N1)C(=O)OCC(C)(C)C2 ? 0.26%

Next compound: CC(C)NCC(C(=O)N1CCN(c2ncnc3c2C(C)CC3O)CC1)c1ccc(Cl)cc1 (stereo not drawn) + CCn1c(-c2cccnc2C(C)OC)c2c3cc(ccc31)N1CCOC(CC(NC(=O)C(C(C)C)N(C)C(=O)C3(F)CCN(C(=O)C#CC(C)(C)N(C)C)CC3)C(=O)N3CCCC(N3)C(=O)OCC(C)(C)C2)C1 8.54%

Another compound: NC1c2ccccc2OC12CCN(c1cnc3c(N4CCCc5ncccc54)n[nH]c3n1)CC2 (stereo not drawn) + CCn1c(-c2cc(N3CCN(C)CC3)cnc2C(C)OC)c2c3cc(ccc31)-c1csc(n1)CC(NC(=O)C1CC1C)C(=O)N1CCCC(N1)C(=O)OCC(C)(C)C2 1.05%

Next entry: CC(Nc1ccc2c(c1)OCCn1cc(N3C(=O)OCC3C(F)F)nc1-2)C(N)=O (stereo not drawn) + CCn1c(-c2cc(N3CCN(C)CC3)cnc2C(C)OC)c2c3cc(ccc31)-c1csc(n1)CC(NC(=O)C1CC1C)C(=O)N1CCCC(N1)C(=O)OCC(C)(C)C2 1.87%

And for CC(=O)OC12COC1CC(O)C1(C)C(=O)C(O)C3=C(C)C(OC(=O)C(O)C(NC(=O)OC(C)(C)C)c4ccccc4)CC(O)(C(OC(=O)c4ccccc4)C21)C3(C)C (stereo not drawn) + CCn1c(-c2cc(N3CCN(C)CC3)cnc2C(C)OC)c2c3cc(ccc31)-c1csc(n1)CC(NC(=O)C1CC1C)C(=O)N1CCCC(N1)C(=O)OCC(C)(C)C2 ? 4.72%

Entry to check: CC(=O)OC12COC1CC(O)C1(C)C(=O)C(O)C3=C(C)C(OC(=O)C(O)C(NC(=O)OC(C)(C)C)c4ccccc4)CC(O)(C(OC(=O)c4ccccc4)C21)C3(C)C (stereo not drawn) + CCn1c(-c2cccnc2C(C)OC)c2c3cc(ccc31)N1CCOC(CC(NC(=O)C(C(C)C)N(C)C(=O)C3(F)CCN(C(=O)C#CC(C)(C)N(C)C)CC3)C(=O)N3CCCC(N3)C(=O)OCC(C)(C)C2)C1 11.2%
